system: NCI/ADR-RES ovarian; assay: NCI-60 one-dose screen, 48 h (100 = growth as untreated, 0 = no growth, -100 = all killed); details: 10 µM unless noted
The panel holds about 83,000 compounds, 20% with a hit somewhere; the sample as a whole holds those more often.
Can you tell me growth for the items I'm about to list?
Give bare numbers, in %.

Examples with answers:
| COMPOUND | TARGET SYSTEM | growth, % |
| --- | --- | --- |
| NC(N)=N/N=C\c1ccc(OCc2ccccc2)cc1 | NCI/ADR-RES ovarian | 80 |
| N#Cc1nc(-c2ccc(Cl)cc2)cc(-c2ccc(Nc3nc(N4CCCCC4)nc(N4CCCCC4)n3)cc2)c1N | NCI/ADR-RES ovarian | 102 |
| O=C(C=P(c1ccccc1)(c1ccccc1)c1ccccc1)CCl | NCI/ADR-RES ovarian | -27 |

# batch: return growth for each of the 5 compounds below
1. Cc1ccc(S(=O)(=O)NC(CCC(=O)Nc2ccc(Cl)cc2)C(=O)Nc2ccc(Cl)cc2)cc1 (centres undefined)
2. CCCCC(CCc1ccccn1)C(=O)c1ccccc1 (centres undefined)
3. CCCc1n(Cc2ccc3ccccc3n2)cc[n+]1Cc1ccc2ccccc2c1
4. O=C(Nc1ccc(Br)cc1)Nc1ccccc1Cl
5. COc1ccc2[nH]c(C(=O)OCc3ccc4cccc(O)c4n3)cc2c1

[39.6, 104, 95.7, 80, -18.9]

# batch: return growth for each of the 7 compounds below
1. COc1c(-c2cc(-c3ccc(C)o3)[nH]c(=O)n2)c(O)cc2occc12
2. COc1cc2cc(C(=O)Nc3ccccc3)c(N)nc2cc1OC
3. O=C(c1ccccc1)N(CCCCl)C(=O)N(CCCCl)C(=O)c1ccccc1
4. CC(COC(=O)c1ccccc1)N1CC2CCC(C1)O2 (centres undefined)
5. COc1ccc(/C(=C\c2cc(OC)c(OC)c(OC)c2)C(=O)N2CCCNCC2)cc1
6. Cc1c(C)c(C)c([N+](=O)[O-])c([N+](=O)[O-])c1C
7. Cc1n(Cc2ccc3ccccc3n2)cc[n+]1Cc1ccc2ccccc2n1

29.7
-29.1
91.1
111
112
99.4
98.7

# batch: return growth for each of the 5 compounds below
1. O=Cc1ccc2nc(C(Cl)(Cl)Cl)ccc2c1
2. CC(C)(C)c1ccc(Cn2c(-c3nonc3N)nc3ccccc32)cc1
3. COc1cc2nccc(Oc3ccc(NC(=O)C4(C(=O)Nc5ccc(F)cc5)CC4)cc3)c2cc1Oc1ccc(N)cn1
4. Cc1[nH]nc2ccc3nc(-c4ccc5[nH]ncc5c4)c4c(c3c12)CCCC4
5. O=c1cc(N2CCOCC2)oc2c(-c3ccc4c(c3)OCCO4)csc12

1. 105
2. 75.8
3. 73.8
4. 40
5. 16.5

# batch: return growth for each of the 7 compounds below
1. COc1ccc(C(=O)c2cc(C)c(OC)c(C)c2)cc1OC(=O)CCl
2. CCCCNCC(O)c1cc2c(Cl)cc(Cl)cc2c2cc(C(F)(F)F)ccc12 (centres undefined)
3. O=C1Cc2c([nH]c3ccc([N+](=O)[O-])cc23)-c2ccccc2N1
4. O=C(Nc1ccc2ncnc(Nc3ccc(F)c(Cl)c3)c2c1)c1cccs1
5. c1ccc(C(CC2=NCCCN2)c2ccccc2)cc1
6. COc1cc2c(cc1C)NC(=O)/C2=C\c1c[nH]c2ccccc12
7. CCCCn1c(C)nc2cc(Nc3nc(Cl)nc4nc[nH]c34)ccc21

7.11
-64
14.5
60.7
101
77
94

# batch: return growth for each of the 4 compounds below
1. Cc1cc(-c2nnc(/C=C/c3ccc4c(c3)OCO4)o2)n[nH]1
2. O=C(N=Nc1c(Cl)c(O)c2ccccc2c1O)C(=O)Nc1cccc(C(F)(F)F)c1
3. Cn1c(=O)c2[nH]c(Cc3ccc4c(c3)OCO4)nc2n(C)c1=O
4. Cc1ccc(O)c(Cc2ccccc2)c1

31.3
71
107
99.7

# batch: return growth for each of the 7 compounds below
1. NS(=O)(=O)c1ccc(N2N=C(c3cccs3)CC2c2ccccc2O)cc1 (centres undefined)
2. C/C(CC(=O)NNc1ccc([N+](=O)[O-])cc1)=N\Nc1ccc([N+](=O)[O-])cc1
3. Cc1ccc2nc(CN(CCN(Cc3nc4ccc(C)cc4[nH]3)Cc3nc4ccc(C)cc4[nH]3)Cc3nc4ccc(C)cc4[nH]3)[nH]c2c1
4. O=C(NC1CC1)c1ccc(-c2nc3ccc4[nH]ncc4c3c3c2CCCC3)cc1
5. Cc1nc2n[nH]c(N)c2nc1C
6. C=CCn1c(SCC(=O)Nc2ccc(C(=O)/C=C/c3ccc(Cl)cc3)cc2)nnc1-c1ccc(Cl)cc1
7. CCN(CC)CCNc1c(C)cc(CO)c(Cl)c1C

1: 27.3; 2: 49.7; 3: -72.5; 4: 72.1; 5: 103; 6: 80.5; 7: 101

# batch: return growth for each of the 2 compounds below
1. Nc1cccc(S(=O)(=O)c2cccc(N)c2)c1
2. CSC(=S)N/N=C(\C)c1ccccn1

115
12.8

# batch: return growth for each of the 4 compounds below
1. CCOC(CN1CCN(CC(C)C(=O)c2ccccc2)CC1)c1ccccc1 (centres undefined)
2. COc1ccc(-c2nsc3c2NC(=O)CC3c2ccc3c(c2)OCO3)cc1 (centres undefined)
3. O=C(CI)NCCNc1cccc2c(S(=O)(=O)O)cccc12
4. CCCCCCCCCCCCCC[N+](C)(C)CCCCCCCCCCCCCC

1: 106; 2: 13.9; 3: 106; 4: 104

----------
Can you tell me growth for the items I'm about to list?
tested on: MOLT-4 leukemia; assay: NCI-60 one-dose screen, 48 h (100 = growth as untreated, 0 = no growth, -100 = all killed); settings: 10 µM unless noted
This is part of a sample that, as a whole, favours compounds with a hit. Of some 83,000 tested, about 20% had one in any assay.
Numbers only, in %.

| MOLECULE | growth [%] |
| --- | --- |
| CCCCCCCCCCCCCCC(C(=O)OCC)C(=O)OCC | 109 |
| COc1ccc(/C(=C\c2cc(OC)c(OC)c(OC)c2)C(=O)Nc2nc3ccc(Cl)cc3s2)cc1 | 64.4 |
| CC(=O)O[C@H]1[C@H](CC#CC#CC[C@@H]2C[C@]3(C)[C@H]4CC=C5[C@H]6[C@@H](C)[C@H](C)CC[C@]6(C(=O)NCCCCCCCCN)CC[C@@]5(C)[C@]4(C)CC[C@H]3C(C)(C)[C@H]2OC(C)=O)C[C@]2(C)[C@H]3CC=C4[C@H]5[C@@H](C)[C@H](C)CC[C@]5(C(=O)NCCCCCCCCN)CC[C@@]4(C)[C@]3(C)CC[C@H]2C1(C)C | 103 |
| COc1ccc2nc(C)cc(Nc3ccccc3O)c2c1 | 87.7 |
| COc1c(C(=O)/C=C/c2ccc(C)o2)c(O)cc2occc12 | 64 |

# batch: return growth for each of the 6 molecules below
1. COc1ccc(NC(=O)C2c3ccccc3C(=O)N(CC(C)C)C2c2cccs2)cc1 (stereo not drawn)
2. O=C(Nc1ccc2ncnc(Nc3ccc(F)c(Cl)c3)c2c1)c1cccs1
3. COc1ccc(Nc2ncccc2C(=O)NCc2cn(Cc3cc(OC)cc(OC)c3)nn2)cc1
4. C#CC[C@@H]1C[C@]2(C)[C@H]3CC=C4[C@H]5[C@@H](C)[C@H](C)CC[C@]5(C(=O)NCCCN5CCN(CCCN)CC5)CC[C@@]4(C)[C@]3(C)CC[C@H]2C(C)(C)[C@H]1OC(C)=O
5. CCC(=O)NC(O)C(Cl)(Cl)C(C)Cl (stereo not drawn)
6. COc1ccc2[nH]cc(/C=C3\C(=O)Nc4ccccc43)c2c1

[98.6, 71.9, 82.7, -38.1, 108, 1.26]

# batch: return growth for each of the 2 molecules below
1. CCc1ccc(Nc2cc(C)c3ccc(O)cc3n2)cc1
2. CCCCCCCCCCC(C(O)c1ccccc1)N1CCCCC1 (stereo not drawn)

1. 62.9
2. 6.36

# batch: return growth for each of the 2 molecules below
1. COc1ccc(-c2nn(-c3cccc(Cl)c3)cc2/C=C2\C(=N)N(c3ccccc3)N=C2N)cc1
2. NC(N)=N/N=C\c1cccc(OCc2ccccc2)c1

1: 6.35; 2: 80.1

# batch: return growth for each of the 2 molecules below
1. Cc1cc(C#Cc2ccccc2)ccc1-n1c(/C=C/c2ccc(F)cc2)nc2ccccc2c1=O
2. CC(=O)c1ccc(-n2c(-c3cc(-c4ccsc4)n[nH]3)n[nH]c2=S)cc1

[44.7, 87.6]

# return recorded growth for entry "COc1ccc(C2=Nn3c(nnc3-c3ccc(Cl)cc3N)SC2)cc1"
101

----------
test system: NCI-H226 lung; test: NCI-60 one-dose screen, 48 h (100 = growth as untreated, 0 = no growth, -100 = all killed); conditions: 10 µM unless noted
This is part of a sample that, as a whole, favours compounds with a hit. Of some 83,000 tested, about 20% had one in any assay.
Rule: growth below 40% gives MET. Equal to or above 40% gives NOT MET.

Here's what some known entries look like.
| MOLECULE | QUALITATIVE LABEL |
| --- | --- |
| Cc1cc(C)c2c(NC(=O)Nc3ccc(Cl)c(Cl)c3)n[nH]c2n1 | NOT MET |
| CN(C)CCOc1nc2c3ccncc3cc(-c3cccc(Cl)c3)c2c2cnccc12 | MET |
| COc1ccc(-n2nc(C(=O)NCC(=O)Nc3nc4cc(OC)ccc4s3)c3ccccc3c2=O)cc1 | MET |
| COC1=CC(c2ccc[nH]2)=N/C1=C\c1[nH]c(C)c(C(=O)CCCCCCCCC(=O)O[C@H]2CC[C@H]3C4CCc5cc(O)ccc5C4CC[C@]23C)c1C (some centres undefined) | MET |
| CCOC(=O)c1c(NC(=O)c2ccccc2)sc2c(O)c(CN(CC)CC)ccc12 | MET |

API: query returns whether the molecule falls strictly under 40% in growth. Query: "COc1c(C(=O)/C=C/c2ccc(C)o2)c(O)cc2occc12"
NOT MET

API: query returns whether the molecule falls strictly under 40% in growth. Query: "CCCc1n(Cc2ccc3ccccc3n2)cc[n+]1Cc1ccc2ccccc2c1"
MET

API: query returns whether the molecule falls strictly under 40% in growth. Query: "Cc1nc([C@H]2CC[C@H]3[C@@H]4CCC5=CC(=O)CC[C@]5(C)[C@H]4CC[C@]23C)cs1"
NOT MET

API: query returns whether the molecule falls strictly under 40% in growth. Query: COc1ccc(C2=NN(C=O)C(c3ccc(OS(=O)(=O)c4ccc(C)cc4)c(OC)c3)C2)cc1 (centres undefined)
NOT MET
